- assay.overview: NCI Yeast Anticancer Drug Screen. Data for the mlh1 rad18 strain (AID 175)
- test.conditions: S. cerevisiae mlh1 rad18 strain growth inhibition, stronger effect = higher value; at 50.0 µM unless noted
About 79,000 compounds went through this panel and 15% of them were active in at least one assay; those are over-represented in the sample as a whole.
Recorded growth inhibition for the following compounds
Field: numeric (%). Do not append units.

Below are worked cases with known answers.
O=C(/C=C/c1ccc(OCC(=O)N2CCN(c3ccccc3)CC2)cc1)c1ccccc1
10.7
CCOC(=O)C(Cc1c[nH]c2c(N(CCO)CCO)cccc12)(NC(C)=O)C(=O)OCC
9.95
Cc1cc(Cl)ccc1N=C1NC(=O)C(CC(=O)Nc2ccc([N+](=O)[O-])cc2[N+](=O)[O-])S1 (stereo not drawn)
33.1

Consider the compound c1ccc(-c2cnoc2-c2ccccc2)cc1 and give its recorded growth inhibition.
8.3

Consider the compound COc1ccc(C2=N/C(=C\c3ccccc3)C(=O)O2)cc1 and give its recorded growth inhibition.
-0.9

Consider the compound O=C(N[C@@H](CSSC[C@H](NC(=O)OCc1ccccc1)C(=O)O)C(=O)O)OCc1ccccc1 and give its recorded growth inhibition.
2.55

Consider the compound CCC(C)(C)c1ccc(C(=O)OC)o1 and give its recorded growth inhibition.
-13.8

Consider the compound CCOC(=O)C1=C(C(=O)c2ccc(OC)cc2)C(c2ccc([N+](=O)[O-])cc2)C(C(=O)c2ccc(OC)cc2)=C(C(=O)OCC)N1 and give its recorded growth inhibition.
-3.25

Consider the compound COc1ccc(C(NC(N)=O)c2cc3c(cc2OC(C)=O)OCO3)cc1 (stereo not drawn) and give its recorded growth inhibition.
-0.4

Consider the compound CN1C(=O)N(C2CCCCC2)C(=O)C(C)(CN2CCCCC2)C1=O (stereo not drawn) and give its recorded growth inhibition.
12.2

Consider the compound CC(=O)OC1C(Br)CCCC1Br (stereo not drawn) and give its recorded growth inhibition.
15.8

Consider the compound CCCCCCCCC(=O)NCO and give its recorded growth inhibition.
-24.1

Consider the compound COc1cccc(OC)c1NC(=O)C(=O)Nn1c(NNC(=O)c2ccncc2)nc2ccccc2c1=O and give its recorded growth inhibition.
38.4

Consider the compound O=C(O)c1ccccc1Br and give its recorded growth inhibition.
-3.35

Consider the compound O=C(O)/C=C/c1cc(Br)sc1Br and give its recorded growth inhibition.
19.5

Consider the compound Cc1ccc(C(=O)C[n+]2ccc3ccccc3c2)c(O)c1 and give its recorded growth inhibition.
1.25

Consider the compound C/C(=N\NC(N)=O)c1ccc(Br)c2ccccc12 and give its recorded growth inhibition.
-1.2

Consider the compound Cc1cn(C2CC(OP(=O)(O)OCC3OC(n4ccc(N)nc4=O)C(O)C3O)C(CO)O2)c(=O)[nH]c1=O (stereo not drawn) and give its recorded growth inhibition.
-74.2

Consider the compound COc1ccc(C2OC3=C(Nc4cc(C)c(C)cc4N3)C2=O)cc1 (stereo not drawn) and give its recorded growth inhibition.
13.8

Consider the compound CC1(C)CSCC(C)(C)C(=N/N)/C1=N\N and give its recorded growth inhibition.
-41.3

###

- assay.overview: NCI Yeast Anticancer Drug Screen. Data for the mlh1 rad18 strain (AID 175)
- test.conditions: S. cerevisiae mlh1 rad18 strain growth inhibition; at 50.0 µM unless noted
This is part of a sample that, as a whole, favours compounds with a hit. Of some 79,000 tested, about 15% had one in any assay. Active and inactive are the calls of the source. No stated cut-off is given here; in the data, active means growth inhibition above about 70%; inactive means the rest.
In this exercise, the only acceptable responses are 1.0 for active, 0.0 for inactive

Please review the following examples before continuing.
CCOC(=O)c1ccc(N)nc1
0.0
CC(=O)OCCc1cccnc1/C=N/O
0.0
CCC1CC(=O)c2ccccc2O1 (stereo unspecified)
0.0
COc1ccc(-n2c(N)c(C#N)[nH]c2=O)cc1
0.0
OC(c1ccccc1)(c1ccccc1)C1/C(=C/c2ccccc2)C1Cc1ccccc1 (stereo unspecified)
0.0
CN(C)C(=O)OC(Cn1cncn1)(Cn1cncn1)c1ccc(Cl)cc1Cl
0.0

Field: next molecule
Any idea what this test logged for CCCCC(OC(=O)c1ccccc1)c1cc(OC(=O)c2ccccc2)c2c(c1OC(=O)c1ccccc1)CC(C)=C(C)C2 (stereo unspecified) ?
0.0

###

- assay.overview: NCI Yeast Anticancer Drug Screen. Data for the bub3 strain (AID 167)
- test.conditions: S. cerevisiae bub3 mutant strain, stronger effect = higher value; at 50.0 µM unless noted
This is part of a sample that, as a whole, favours compounds with a hit. Of some 79,000 tested, about 15% had one in any assay.
property.measured: growth inhibition (%)
Field: numeric (%). Do not append units.

Below are worked cases with known answers.
CC(=O)OC1CC(n2cc(F)c(=O)[nH]c2=O)OC1CO (stereo not given)
-0.45
CN(C)c1ccc(C(c2ccc(C(c3ccc(N(C)C)cc3)c3ccc(N(C)C)cc3)cc2)c2ccc(N(C)C)cc2)cc1
-10.8
CCCc1onc(-c2noc(CCC)c2CC)c1CC
-19.4
CNC(=O)C(C)NC(=O)C(Cc1ccccc1)NC(=O)c1ccccc1 (stereo not given)
5.2
COc1cc2c(c(OC)c1OC)-c1ccc(OC)c(=O)cc1[C@@H](NC=O)CC2
-8.05

Consider the compound Cc1cccc(NC(=O)c2ccc(Cl)cc2Cl)c1 and give its recorded growth inhibition.
21.3

Consider the compound N#C/C=C\c1ccc(-c2cc(C(F)(F)F)cc(C(F)(F)F)c2)o1 and give its recorded growth inhibition.
10.8

Consider the compound COc1ccc(Br)cc1C1OC(=O)c2c(OC)c(OC)cc([N+](=O)[O-])c21 (stereo not given) and give its recorded growth inhibition.
2.3

Consider the compound CC(C)C(C=O)C(O)(C(F)(F)F)C(F)(F)F (stereo not given) and give its recorded growth inhibition.
22.3

Consider the compound NC(N)=NS(=O)(=O)c1ccc(N=NC2=C(O)C(c3ccccc3)N(c3ccccc3)C2=O)cc1 (stereo not given) and give its recorded growth inhibition.
0.45

###

Recorded growth inhibition for the following compounds
- assay.overview: NCI Yeast Anticancer Drug Screen. Data for the mlh1 rad18 strain (AID 175)
- test.conditions: S. cerevisiae mlh1 rad18 strain growth inhibition, stronger effect = higher value; at 50.0 µM unless noted
Compounds without any hit were thinned out: in the full panel of roughly 79,000, 15% have a hit.
Field: numeric (%). Do not append units.

COc1cc(OC)c2c(c1)C(C)(C)CCC2(C)C
4.4
C=C(Br)CNC(=O)C(O)(c1ccccc1)c1ccccc1
-16.9
COc1ccc2oc3cc(Cl)ccc3c(=O)c2c1
14.2
CCOC(=O)C/C(=N\NC(=O)c1ccccc1O)C(=O)OCC
29.9
NNC(=O)c1nc2ccccc2s1
20.6

Consider the compound CCOC(=O)Cn1c(=O)[nH]c(=O)c2c1ncn2Cc1ccccc1 and give its recorded growth inhibition.
25.7

Consider the compound C[N+](C)(C)c1ccc2[nH]c3ccccc3c2c1 and give its recorded growth inhibition.
7.55

Consider the compound CCOc1ccc(F)cc1 and give its recorded growth inhibition.
25.9

Consider the compound N#Cc1c(-c2ccccc2)c(-c2ccccc2)nn(CCO)c1=O and give its recorded growth inhibition.
46

Consider the compound S=c1sc2c(s1)SCCCCSCCCCSc1sc(=S)sc1SCCCCSCCCCS2 and give its recorded growth inhibition.
-29.4

Consider the compound N=C(N)SCCc1cn2ccccc2n1 and give its recorded growth inhibition.
1.05

Consider the compound CCc1cc(C(=O)OC/C(C)=N/O)c2ccccc2n1 and give its recorded growth inhibition.
-22.6

Consider the compound CC(C)OC(=O)Nc1ccc(O)cc1 and give its recorded growth inhibition.
-5.7

###

- assay.overview: NCI Yeast Anticancer Drug Screen. Data for the mlh1 rad18 strain (AID 175)
- test.conditions: S. cerevisiae mlh1 rad18 strain growth inhibition, stronger effect = higher value; at 50.0 µM unless noted
- Method: Growth inhibition of yeast strains with defined genetic alterations is measured as a screen for potential anti-cancer activity. Selected strains with alterations in DNA damage repair or cell cycle control were exposed to compounds and growth inhibition was measured relative to vehicle treated controls. The strain used in this assay is mlh1 rad18
About 79,000 compounds went through this panel and 15% of them were active in at least one assay; those are over-represented in the sample as a whole.
Recorded growth inhibition for the following compounds
Field: numeric (%). Do not append units.

Consider the compound COc1ccc(NC(=O)CC(=O)n2nc(-c3ccccc3)c(N=Nc3ccccc3C(=O)O)c2-c2ccccc2)cc1 and give its recorded growth inhibition.
-13.5

###

Recorded growth inhibition for the following compounds
- assay.overview: NCI Yeast Anticancer Drug Screen. Data for the rad50 strain (AID 155);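 also: 0% = growth of vehicle-only cultures of the same strain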
- test.conditions: S. cerevisiae rad50 strain growth inhibition, stronger effect = higher value; at 50.0 µM unless noted
Compounds without any hit were thinned out: in the full panel of roughly 79,000, 15% have a hit. Calls of active or inactive are those of the source. Rule as the data show it: active = growth inhibition above about 70%; inactive = the rest.

Below are worked cases with known answers.
Cc1cc(Cl)ccc1N=C1NC(=O)C(CC(=O)Nc2ccc([N+](=O)[O-])cc2[N+](=O)[O-])S1 (centres undefined)
25.1% (inactive)
CN(C)c1ccc(/[N+]([O-])=N/N2C(=O)c3ccccc3C2=O)cc1
-25.1% (inactive)
Cc1nc(N(C)C)oc(=O)c1CCc1ccccc1
-5.8% (inactive)
CN(C)C(C)(CO)CO
17.4% (inactive)
Cc1cc(C)c(C(=O)Cc2ccccc2)c(C)c1
18.4% (inactive)
Brc1cc(Br)cc(CN2CCOCC2)c1
34% (inactive)
CC(C)OC(=O)CC1NS(=O)(=O)c2ccccc21 (centres undefined)
3.9% (inactive)
CCCC(=O)NC1CCc2cc(OC)c(OC)c(OC)c2-c2ccc(OC)c(=O)cc21 (centres undefined)
27.4% (inactive)

Consider the compound CS(=O)CCC1C(=O)OC(C(C)(C)C)N1C(=O)c1ccccc1 (centres undefined) and give its recorded growth inhibition.
8.25% (inactive)

Consider the compound CCn1nc(C)c2c1C(=O)NC(C)C(=O)N2 (centres undefined) and give its recorded growth inhibition.
-22.6% (inactive)

Consider the compound C=CCOCC(O)CNCC(O)COCC=C (centres undefined) and give its recorded growth inhibition.
-36.9% (inactive)

Consider the compound COc1ccc(-n2c(CCC(=O)O)nc3c2C(=O)c2ccccc2C3=O)cc1 and give its recorded growth inhibition.
31.6% (inactive)

Consider the compound COc1ccc(C(=O)C(CN(C)C)CN(C)C)c(OC)c1 and give its recorded growth inhibition.
30.6% (inactive)

Consider the compound O=C1CN(c2ccccc2)C(=O)CN1NCNN1CC(=O)N(c2ccccc2)CC1=O and give its recorded growth inhibition.
-27.4% (inactive)

Consider the compound CC1=NN(C(=O)Cc2ccccc2)C(=O)/C1=C\C=C\c1ccccc1 and give its recorded growth inhibition.
11.3% (inactive)

Consider the compound CCCCCCC(CCN(C)C)(C(C)=O)c1ccccc1 (centres undefined) and give its recorded growth inhibition.
-3.3% (inactive)
